- targetDesc: T1, RBFOX1 RRM (Homo sapiens, UniProt Q9NWB1 109-208)
- T1 sequence: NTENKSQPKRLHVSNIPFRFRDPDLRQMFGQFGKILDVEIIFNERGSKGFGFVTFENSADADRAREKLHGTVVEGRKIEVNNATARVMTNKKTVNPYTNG
- methodNotes: EMSA; HiTS-Eq, 1 nM pool, 10 min; buffer printed only for the single-RNA assays: 10 mM Tris pH 7.5, 150 mM NaCl, 3.4 mM EDTA, 0.001% NP-40, 30 C
- assayContext: tags: His6 N-terminal (pET28a); label: 5' 32P
The full ranking holds about 16,000 sequences; the median of “ka relative to ugcaugu” is about 0.0091, and the highest 2% start at about 0.032. For the sample, the highest values were picked, then their nearest neighbours and some sequences at random.
quantityKind: binding signal

Find the recorded binding signal belonging to CGUUGGA (DNA:RNA) RNA: GGGAGACCGGAAUUCAGAUUGUCCCGUUGGAUUAAAUCCCGUCGUAGCCACCA DNA 1: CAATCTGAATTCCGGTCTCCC DNA 2: TGGTGGCTACGACGGGATT and report it.
0.00714 KA relative to UGCAUGU

Now the same for CUCGUCC (DNA:RNA) RNA: GGGAGACCGGAAUUCAGAUUGUCCCUCGUCCUUAAAUCCCGUCGUAGCCACCA DNA 1: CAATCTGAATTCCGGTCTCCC DNA 2: TGGTGGCTACGACGGGATT
0.00629 KA relative to UGCAUGU
